# assay.summary: Evaluation of solid stability (storage 2 weeks; total impurity by HPLC, water content, powder X-ray diffraction)
# Format: physicochemical
# experimental.setup: c-2: 25° C., light irradiation 1000 lx, well closed, 2 weeks
metric.name: water content (%)

> print(dat)
                                   molecule    metric.name  measure.unit  experimental.value
1  CCS(=O)(=O)O.COc1cc2nccc(Oc3ccc(NC(=O)NC4CC4)c(Cl)c3)c2cc1C(N)=O [esylate (Form β)]  water content             %                 2.1

I: COc1cc2nccc(Oc3ccc(NC(=O)NC4CC4)c(Cl)c3)c2cc1C(N)=O.CS(=O)(=O)O [mesylate (Form C)]
II: CC(=O)O.COc1cc2nccc(Oc3ccc(NC(=O)NC4CC4)c(Cl)c3)c2cc1C(N)=O.CS(=O)(=O)O
III: COc1cc2nccc(Oc3ccc(NC(=O)NC4CC4)c(Cl)c3)c2cc1C(N)=O.CS(=O)(=O)O [mesylate (Form A)]
[ask] Descending sort on water content required. Reply with the item labels sorted in the order that was asked for.
[reply] II, I, III
